Target: cynomolgus PAI-1 (cynomolgus, UniProt P05121 24-402 (human entry), limits assumed)
Assay: cell-based or functional assay
experimental endpoint: IC50 chromogenic

Answered examples (2):
binder	experimental endpoint	result value
Antibody 17, scFv (scFv, V domains shown) VH: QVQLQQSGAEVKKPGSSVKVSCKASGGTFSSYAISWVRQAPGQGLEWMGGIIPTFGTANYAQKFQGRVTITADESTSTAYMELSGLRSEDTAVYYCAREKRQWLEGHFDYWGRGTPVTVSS VL: DIQMTQSPSFLSASIGDRVTITCRASEGIYHELAWYQQKPGKAPKLLIYRASSLASGAPSRFSGSGSGTDFTLTISSLQPDDFATYYCQQYSNYPLTFGGGTKLEIK	IC50 chromogenic	41.5 nM
Antibody 05, scFv (scFv, V domains shown) VH: QVQLQQSGAEVKKPGSSVKVSCKASGGTFSSYAISWVRQAPGQGLEWMGGIIPTFSTANYAQKFRGRVTITADESTSTAYMELSGLRSEDTAVYYCAREKRQWLEGHFDYWGRGTPVTVSS VL: DIQMTQSPSFLSASIGDRVTITCRASEGIYHQLAWYQQKPGKAPKLLIYRASSLASGAPSRFSGSGSGTDFTLTISSLQPDDFATYYCQQYSNYPLTFGGGTKLEIK	IC50 chromogenic	0.5 nM

Switching to the query record.
-- ask Can you share its IC50 chromogenic? I mean this binder: Antibody 11, scFv (scFv, V domains shown) VH: QVQLQQSGAEVKKPGSSVKVSCKASGGTFSSYAISWMRQAPGQGLEWMGGIIPIFGTANYAQKFQGRVTITADESTSTAYMELSGLRSEDTAVYYCAREKRQWLEGHFDYWGRGTPVTVSS VL: DIQMIQSPSFLSASTGDRVTITCQASEGIYHELAWYQQKPGKAPKLLIYRASSLASGAPSRFSGSGSGTDFTLTISSLQPDDFATYYCQQYSNYPLTFGGGTKLEIK
-- reply 43.8 nM

FYI, the data here is from patent US20120114652A1.
